target-under-test: BRD4 (BDII_E352-M457) (Homo sapiens)
protocol-details: TR-FRET bromodomain binding assay, BRD4 second bromodomain
result-type: Ki (nM)

Answered cases to consult:
Cc1[nH]c(-c2ccccc2Oc2ccccc2)c2cc(C(=O)NCc3ccco3)[nH]c(=O)c12    155
Cc1[nH]c(-c2ccccc2Oc2ccccc2)c2cc(C(=O)N3CCC(O)CC3)[nH]c(=O)c12    48.8
Cc1[nH]c(-c2cc(NS(C)(=O)=O)ccc2Oc2ccccc2)c2cc(C(N)=O)[nH]c(=O)c12    2.39
Cc1[nH]c(-c2ccccc2Oc2ccc(F)cc2F)c2cc(C(=O)O)[nH]c(=O)c12    2790
CCOC(=O)c1cc2c(-c3cc(NS(C)(=O)=O)ccc3Oc3ccc(F)cc3F)[nH]c(C)c2c(=O)[nH]1    29.3
Cc1[nH]c(-c2ccccc2Oc2ccccc2)c2cc(C(=O)NCCN3CCCC3)[nH]c(=O)c12    92.3

(P) Cc1[nH]c(-c2ccccc2Oc2ccccc2)c2cc(C(N)=O)[nH]c(=O)c12
(Q) Cc1[nH]c(-c2ccccc2Oc2ccccc2)c2cc(C(=O)Nc3ccc(CN4CCN(C)CC4)cc3)[nH]c(=O)c12
(R) Cc1[nH]c(-c2ccccc2Oc2ccccc2)c2cc(-c3nc(-c4cccnc4)no3)[nH]c(=O)c12
Asked: Please give the order of these compounds when sorted by Ki, largest value leading. Submit the labels in the order that the ranking request calls for.
Given back: R, P, Q

(P) CCOC(=O)c1nc2c(-c3ccccc3Oc3ccccc3)[nH]c(C)c2c(=O)[nH]1
(Q) Cc1[nH]c(-c2cc(Cl)ccc2Oc2ccc(F)cc2F)c2cc(C(N)=O)[nH]c(=O)c12
(R) CCOC(=O)c1cc2c(-c3cc(NS(C)(=O)=O)ccc3Oc3ccccc3)[nH]c(C)c2c(=O)[nH]1
Asked: Provide the items ranked by increasing Ki. Give your ranking as a list of the labels in the requested order.
Given back: R, Q, P

(I) Cc1[nH]c(-c2ccccc2Oc2ccccc2)c2cc(C(=O)Nc3nccs3)[nH]c(=O)c12
(II) Cc1[nH]c(-c2ccccc2Oc2ccccc2)c2nc(-c3ccco3)[nH]c(=O)c12
Asked: Between the two listed entries I and II , which has its Ki at the higher number? Reply with the label of the item you choose.
Given back: II

----------
target-under-test: UniProt O60885
protocol-details: TR-FRET bromodomain binding assay, BRD4 second bromodomain
pKi: −log10 of the molar value.
result-type: pKi

Cc1[nH]c(-c2cc(S(C)(=O)=O)ccc2Oc2ccc(F)cc2F)c2c1C(=O)NCC2 [Example 98]    6.83

(1) Cc1[nH]c(-c2ccccc2Oc2ccccc2)c2cc(-c3nc(-c4cnccn4)no3)[nH]c(=O)c12 [Example 65]
(2) Cc1[nH]c(-c2ccccc2Oc2ccccc2)c2c1C(=O)NCC2 [Example 92]
Asked: Identify the entry with the smaller pKi: 1 or 2 . Kindly give the label for the entry you pick.
Given back: 2

----------
target-under-test: BRD4 (BDI_K57-E168) (Homo sapiens, UniProt O60885)
Construct: BD1: amino acids K57-E168
protocol-details: TR-FRET bromodomain binding assay, BRD4 first bromodomain
test-parameters: His-tagged BD1, 100 nM Alexa647 probe; Ki calculated from IC50; dilution protocol A-G
result-type: Ki (nM)

(P) CCOC(=O)c1cc2c(-c3ccc(-c4cc(C)n[nH]4)cc3)[nH]c(C)c2c(=O)[nH]1 [Example 8]
(Q) Cc1[nH]c(-c2cc(NS(C)(=O)=O)ccc2Oc2ccccc2)c2nc[nH]c(=O)c12 [Example 91]
(R) Cc1[nH]c(-c2cc(NS(=O)(=O)CC(F)(F)F)ccc2Oc2ccccc2)c2cn[nH]c(=O)c12 [Example 76]
Asked: Put the items above in order of decreasing Ki. Please express your ranking as an ordered list of the labels.
Given back: P, Q, R
(P: 95.6 nM, Q: 22.6 nM, R: 5.82 nM)
